ASSAY TARGET: Metabotropic glutamate receptor 6 (Rattus norvegicus, UniProt P35349)
Sequence (P35349 whole entry): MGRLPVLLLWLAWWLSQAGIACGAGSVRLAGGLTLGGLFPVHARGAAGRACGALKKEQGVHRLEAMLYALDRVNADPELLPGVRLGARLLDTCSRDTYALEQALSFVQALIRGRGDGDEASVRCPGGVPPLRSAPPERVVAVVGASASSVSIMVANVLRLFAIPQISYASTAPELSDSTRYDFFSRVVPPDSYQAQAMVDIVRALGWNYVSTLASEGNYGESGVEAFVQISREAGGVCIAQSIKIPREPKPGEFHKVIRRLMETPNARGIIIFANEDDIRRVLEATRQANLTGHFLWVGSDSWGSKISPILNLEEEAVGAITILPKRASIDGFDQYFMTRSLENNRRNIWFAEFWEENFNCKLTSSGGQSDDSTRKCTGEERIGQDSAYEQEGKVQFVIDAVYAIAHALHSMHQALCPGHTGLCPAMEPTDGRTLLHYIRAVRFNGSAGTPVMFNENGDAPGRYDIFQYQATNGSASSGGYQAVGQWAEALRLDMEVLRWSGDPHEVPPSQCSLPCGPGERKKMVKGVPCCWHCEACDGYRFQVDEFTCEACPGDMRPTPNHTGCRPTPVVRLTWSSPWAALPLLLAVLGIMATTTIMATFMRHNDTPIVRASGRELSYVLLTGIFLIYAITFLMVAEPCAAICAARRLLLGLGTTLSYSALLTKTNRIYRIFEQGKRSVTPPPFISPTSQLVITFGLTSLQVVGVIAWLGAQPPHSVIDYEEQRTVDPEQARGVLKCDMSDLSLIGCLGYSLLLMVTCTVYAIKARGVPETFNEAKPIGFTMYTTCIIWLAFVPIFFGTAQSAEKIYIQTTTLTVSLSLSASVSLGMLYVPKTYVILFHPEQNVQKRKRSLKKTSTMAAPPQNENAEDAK
ASSAY PROTOCOL: Agonist activity at rat mGlu6 receptor expressed in HEK293 cells co-transfected with G-protein alpha and EAAC1 assessed as increase in intracellular inositol phosphate accumulation after 1 hr by scintillation counting
Format: functional, cell-based
Listed here: items and their measured pEC50.
For clarity, pEC50 is expressed as the negative log10 of concentration in mol/L.

Reported pEC50 (Metabotropic glutamate receptor 6 (Rattus norvegicus, UniProt P35349)) for entry NC(CCP(=O)(O)C(CC(=O)O)C(=O)O)C(=O)O (stereo unspecified) is 3.95

Field pEC50 (system: Metabotropic glutamate receptor 6 (Rattus norvegicus, UniProt P35349)) for entry N[C@@H](CCP(=O)(O)CC(CC(=O)O)C(=O)O)C(=O)O (stereo partly specified) = 3.94

Fill in: Metabotropic glutamate receptor 6 (Rattus norvegicus, UniProt P35349) pEC50 for NC(CCP(=O)(O)CCC(=O)O)C(=O)O (racemic) = 4.49

Tested system Metabotropic glutamate receptor 6 (Rattus norvegicus, UniProt P35349); pEC50 recorded for N[C@@H](CCP(=O)(O)CCC(=O)O)C(=O)O was 4.51

Record N[C@@H](CCP(=O)(O)O)C(=O)O ; system Metabotropic glutamate receptor 6 (Rattus norvegicus, UniProt P35349); pEC50 = 5.48

====

Items are presented alongside their recorded EC50.
ASSAY TARGET: Metabotropic glutamate receptor 6 (Rattus norvegicus)
ASSAY PROTOCOL: Agonist activity at rat mGlu6 receptor expressed in HEK293 cells co-transfected with G-protein alpha and EAAC1 assessed as increase in intracellular inositol phosphate accumulation after 1 hr by scintillation counting
Format: functional, cell-based
Write down the numeric answer in µM and omit the unit.

Some molecules with recorded EC50:
N[C@H](CCP(=O)(O)CCC(=O)O)C(=O)O ... 99
N[C@@]1(C(=O)O)C[C@H](C(=O)O)[C@H](C(=O)O)C1 ... 10.6

Note: attention shifts to another entry.
EC50 reading for N[C@@H](CCP(=O)(O)CC(=O)O)C(=O)O : 131

====

ASSAY TARGET: Metabotropic glutamate receptor 4 (Rattus norvegicus, UniProt P31423)
Sequence (P31423 whole entry): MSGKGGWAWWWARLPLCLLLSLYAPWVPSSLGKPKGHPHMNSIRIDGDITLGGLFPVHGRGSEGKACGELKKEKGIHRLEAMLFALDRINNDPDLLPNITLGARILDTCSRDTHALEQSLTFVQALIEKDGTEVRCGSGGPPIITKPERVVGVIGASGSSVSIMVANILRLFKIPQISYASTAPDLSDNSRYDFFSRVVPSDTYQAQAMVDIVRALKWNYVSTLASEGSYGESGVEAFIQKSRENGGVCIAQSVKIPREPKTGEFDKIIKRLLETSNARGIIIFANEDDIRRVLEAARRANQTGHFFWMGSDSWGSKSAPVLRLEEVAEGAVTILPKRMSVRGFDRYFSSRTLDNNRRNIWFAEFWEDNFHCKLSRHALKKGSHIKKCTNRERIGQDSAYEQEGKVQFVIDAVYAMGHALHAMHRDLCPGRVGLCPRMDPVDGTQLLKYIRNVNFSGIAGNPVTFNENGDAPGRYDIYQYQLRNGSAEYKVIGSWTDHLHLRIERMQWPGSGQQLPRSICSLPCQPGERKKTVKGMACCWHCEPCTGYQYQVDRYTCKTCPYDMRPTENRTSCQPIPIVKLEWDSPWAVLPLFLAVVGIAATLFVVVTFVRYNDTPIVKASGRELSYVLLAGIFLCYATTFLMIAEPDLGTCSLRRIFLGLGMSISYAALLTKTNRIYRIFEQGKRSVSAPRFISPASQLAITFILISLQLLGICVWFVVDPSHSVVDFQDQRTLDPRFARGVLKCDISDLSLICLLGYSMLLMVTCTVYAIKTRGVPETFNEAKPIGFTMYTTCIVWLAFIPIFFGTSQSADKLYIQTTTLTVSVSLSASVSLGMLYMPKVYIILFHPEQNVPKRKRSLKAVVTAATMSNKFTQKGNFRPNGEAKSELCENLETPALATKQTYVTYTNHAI
ASSAY PROTOCOL: Agonist activity at rat mGlu4 receptor expressed in HEK293 cells co-transfected with G-protein alpha and EAAC1 assessed as increase in intracellular inositol phosphate accumulation after 1 hr by scintillation counting
Assay type: functional, cell-based
Quick rule for you: EC50 under 20 µM gets 1.0, anything else gets 0.0.

Below, 3 compounds whose answers are already recorded.
N[C@@H](CCP(=O)(O)CCP(=O)(O)O)C(=O)O ... 0.0
N[C@H](CCP(=O)(O)CCC(=O)O)C(=O)O ... 1.0
N[C@@H](CCP(=O)(O)CC(=O)O)C(=O)O ... 1.0

## Task Quick check: does N[C@@H](CCP(=O)(O)CC(CC(=O)O)C(=O)O)C(=O)O (stereo partly specified) have EC50 under 20 µM?
## Result 1.0

## Task Determine whether this compound shows EC50 lower than 20 µM (ties excluded): N[C@@H](CCP(=O)(O)C(CC(=O)O)C(F)(F)F)C(=O)O (stereo partly specified)
## Result 0.0

## Task Determine whether this compound shows EC50 lower than 20 µM (ties excluded): N[C@@]1(C(=O)O)C[C@H](C(=O)O)[C@H](C(=O)O)C1
## Result 1.0

====

ASSAY TARGET: Metabotropic glutamate receptor 7 (Rattus norvegicus)
Sequence (P35400 whole entry): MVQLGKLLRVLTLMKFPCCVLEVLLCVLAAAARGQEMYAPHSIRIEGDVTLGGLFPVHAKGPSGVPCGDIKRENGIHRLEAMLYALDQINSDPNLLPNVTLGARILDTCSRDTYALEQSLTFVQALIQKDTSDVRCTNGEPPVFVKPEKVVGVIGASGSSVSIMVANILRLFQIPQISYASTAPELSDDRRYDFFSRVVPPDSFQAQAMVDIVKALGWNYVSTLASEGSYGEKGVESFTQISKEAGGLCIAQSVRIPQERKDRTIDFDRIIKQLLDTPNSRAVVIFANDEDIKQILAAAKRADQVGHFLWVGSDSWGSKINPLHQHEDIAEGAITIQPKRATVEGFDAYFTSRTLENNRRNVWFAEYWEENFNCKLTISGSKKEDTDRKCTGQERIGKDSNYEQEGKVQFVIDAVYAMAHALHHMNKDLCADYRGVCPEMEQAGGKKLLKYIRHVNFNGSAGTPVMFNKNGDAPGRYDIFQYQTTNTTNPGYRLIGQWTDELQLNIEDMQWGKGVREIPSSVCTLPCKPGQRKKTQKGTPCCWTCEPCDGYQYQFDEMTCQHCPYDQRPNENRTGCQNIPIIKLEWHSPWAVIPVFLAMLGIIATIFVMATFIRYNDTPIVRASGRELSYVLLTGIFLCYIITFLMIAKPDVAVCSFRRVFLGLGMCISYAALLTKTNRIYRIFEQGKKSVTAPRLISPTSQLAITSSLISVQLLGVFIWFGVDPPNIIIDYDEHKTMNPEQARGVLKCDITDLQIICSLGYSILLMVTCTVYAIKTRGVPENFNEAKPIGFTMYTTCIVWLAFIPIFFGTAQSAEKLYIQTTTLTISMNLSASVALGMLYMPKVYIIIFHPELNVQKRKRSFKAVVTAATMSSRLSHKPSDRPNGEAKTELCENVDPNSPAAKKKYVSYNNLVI
ASSAY PROTOCOL: Agonist activity at rat mGlu7 receptor expressed in HEK293 cells co-transfected with G-protein alpha and EAAC1 assessed as increase in intracellular calcium level after 1 hr by fluorescence microplate reader
Type: functional, cell-based
MEASURED PARAMETER: pEC50
Would you please state pEC50, meaning minus log10 of the concentration in mol/L, as a bare number?

Solved cases below.
N[C@@H](CCP(=O)(O)CCC(=O)O)C(=O)O ... 4.05
N[C@@H](CCP(=O)(O)/C=C/C(=O)O)C(=O)O ... 4.37

Let's switch to this molecule now.
pEC50 in this record for N[C@@H](CCP(=O)(O)O)C(=O)O : 3.60

====

ASSAY TARGET: Metabotropic glutamate receptor 8 (Rattus norvegicus, UniProt P70579)
Sequence (P70579 whole entry): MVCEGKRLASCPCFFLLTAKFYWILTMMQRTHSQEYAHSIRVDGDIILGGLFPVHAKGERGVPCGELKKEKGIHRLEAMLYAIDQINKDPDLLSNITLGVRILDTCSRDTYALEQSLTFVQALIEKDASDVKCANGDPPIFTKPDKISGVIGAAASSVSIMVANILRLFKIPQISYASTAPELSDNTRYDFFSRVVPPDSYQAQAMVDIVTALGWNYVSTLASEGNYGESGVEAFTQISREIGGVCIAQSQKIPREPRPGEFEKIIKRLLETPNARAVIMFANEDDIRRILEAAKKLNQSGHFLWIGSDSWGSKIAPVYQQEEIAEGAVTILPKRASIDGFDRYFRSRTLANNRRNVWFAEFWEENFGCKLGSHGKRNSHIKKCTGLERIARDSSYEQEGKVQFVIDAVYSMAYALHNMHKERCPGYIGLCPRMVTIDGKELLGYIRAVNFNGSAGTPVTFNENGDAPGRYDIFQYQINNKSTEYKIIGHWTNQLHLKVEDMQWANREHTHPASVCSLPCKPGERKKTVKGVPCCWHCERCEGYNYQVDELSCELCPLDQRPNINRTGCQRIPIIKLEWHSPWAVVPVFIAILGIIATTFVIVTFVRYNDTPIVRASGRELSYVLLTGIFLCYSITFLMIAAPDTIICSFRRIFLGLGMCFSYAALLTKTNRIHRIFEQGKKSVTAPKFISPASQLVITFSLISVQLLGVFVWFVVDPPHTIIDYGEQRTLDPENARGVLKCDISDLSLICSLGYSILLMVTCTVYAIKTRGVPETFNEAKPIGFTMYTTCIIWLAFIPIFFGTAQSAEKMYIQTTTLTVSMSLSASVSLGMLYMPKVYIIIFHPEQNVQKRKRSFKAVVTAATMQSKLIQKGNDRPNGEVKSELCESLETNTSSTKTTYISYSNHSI
ASSAY PROTOCOL: Agonist activity at rat mGlu8 receptor expressed in HEK293 cells co-transfected with G-protein alpha and EAAC1 assessed as increase in intracellular calcium level after 1 hr by fluorescence microplate reader
Type: functional, cell-based
So basically: is EC50 under 7 µM? Then true. Not under? Then false.

Illustrative cases are given below, each with its answer.
N[C@@H](CCP(=O)(O)O)C(=O)O ... true
N[C@@H](CCP(=O)(O)C(O)C(=O)O)C(=O)O (some centres not stated) ... true
N[C@@H](CCP(=O)(O)/C=C/C(=O)O)C(=O)O ... true
N[C@@H](CCP(=O)(O)CC(CCO)C(=O)O)C(=O)O (some centres not stated) ... false
N[C@@H](CCP(=O)(O)C1COC(=O)C1)C(=O)O (some centres not stated) ... false

## Task Lab note: confirm whether the reported EC50 for this molecule is below 7 µM, equality not counting. molecule: N[C@@H](CCP(=O)(O)CC(=O)O)C(=O)O
## Result true

## Task Given N[C@@H](CCP(=O)(O)CC(CC(=O)O)C(=O)O)C(=O)O (some centres not stated) , is recorded EC50 strictly lower than 7 µM?
## Result true

## Task Is EC50 strictly under 7 µM for the entry N[C@@H](CCP(=O)(O)CCCC(=O)O)C(=O)O ?
## Result false

## Task Find out if reported EC50 for N[C@@H](CCP(=O)(O)CC(Cl)C(=O)O)C(=O)O (some centres not stated) is less than 7 µM
## Result false

====

ASSAY TARGET: UniProt:P70579
ASSAY PROTOCOL: Agonist activity at rat mGlu8 receptor expressed in HEK293 cells co-transfected with G-protein alpha and EAAC1 assessed as increase in intracellular inositol phosphate accumulation after 1 hr by scintillation counting
Type: functional, cell-based
Criterion: EC50 strictly less than 8 µM. Met: rule met. Not met: rule not met.

These solved cases illustrate the format of a correct answer.
NC(CCP(=O)(O)CCC(=O)O)C(=O)O (racemic) ... rule not met
N[C@@H](CCP(=O)(O)/C=C/C(=O)O)C(=O)O ... rule met
N[C@@H](CCP(=O)(O)CC(CC(=O)O)C(=O)O)C(=O)O (some centres not stated) ... rule not met
N[C@@H](CCP(=O)(O)CC(=O)O)C(=O)O ... rule met
N[C@@H](CCP(=O)(O)CCP(=O)(O)O)C(=O)O ... rule not met

Proceed to the following item.
## Task Quick check: EC50 of N[C@H](CCP(=O)(O)CCC(=O)O)C(=O)O under 8 µM?
## Result rule not met

====

# reported pEC50; entries follow
ASSAY TARGET: Metabotropic glutamate receptor 8 (Rattus norvegicus)
ASSAY PROTOCOL: Agonist activity at rat mGlu8 receptor expressed in HEK293 cells co-transfected with G-protein alpha and EAAC1 assessed as increase in intracellular calcium level after 1 hr by fluorescence microplate reader
Type: functional, cell-based
Please note pEC50 is a logarithmic value: minus log10 of concentration in mol/L. Answer with that number alone.

N[C@@H](CCP(=O)(O)CCC(=O)O)C(=O)O ... 5.18

# ---- query molecule ----
Observed pEC50 on Metabotropic glutamate receptor 8 (Rattus norvegicus), entry N[C@@H](CCC[PH](=O)O)C(=O)O , equals 4.14
